- Test system: S. aureus
- protocol.details: Minimum inhibitory concentrations (MICs) for S. aureus of exemplary compounds (Table 2)
- Assay type: cell-based
- assay.setup: Staphylococcus aureus, minimum inhibitory concentrations for S. aureus; read-out: MICs
- Text: Exemplary compounds in accordance with the invention are listed in Table 2 with their minimum inhibitory concentrations (MICs) (μg/mL) for S. aureus: Furthermore, the antibiotic compounds can be assayed for anti-proliferative or anti-infective properties on a cellular level. For example, where the target organism is a microorganism, the activity of compounds of interest can be assayed by growing the microorganisms of interest in media either containing or lacking the compound. […]
measured.quantity: log10 of MIC (log10 of the value in µg/mL)

| compound | log10 of MIC |
| --- | --- |
| CC(=O)NC[C@H]1CN(c2ccc(-c3ccc(Cn4ccnc4N)cc3)c(F)c2)C(=O)O1 | 0.30 |
| O=C1O[C@@H](Cn2ccnn2)CN1c1ccc(-c2ccc(CNCc3cnn[nH]3)cc2)c(F)c1 | -0.60 |
| CC(=O)NC[C@H]1CN(c2ccc(-c3ccc(CNNC(=O)c4snnc4C)cc3)c(F)c2)C(=O)O1 | -0.60 |
| CC(=O)NC[C@H]1CN(c2ccc(-c3ccc(CN(C)C(=O)c4ccc5cc[nH]c5c4)cc3)c(F)c2)C(=O)O1 | 0.00 |
| CC(=O)NC[C@H]1CN(c2ccc(-c3ccc(CNCc4cc5ccccc5n4C)cc3)c(F)c2)C(=O)O1 | 0.00 |
| CC(=O)NC[C@H]1CN(c2ccc(-c3ccc(CNCc4ccc(Br)cn4)cc3)c(F)c2)C(=O)O1 | 0.30 |
| CC(=O)NC[C@H]1CN(c2ccc(-c3ccc(Cn4cnc5c(NCCCCO)ncnc54)cc3)c(F)c2)C(=O)O1 | 0.30 |
| CC(=O)NC[C@H]1CN(c2ccc(-c3ccc(CN(C)Cc4cnc[nH]4)cc3)c(F)c2)C(=O)O1 | 0.60 |
| CC(=O)NC[C@H]1CN(c2ccc(-c3ccc(CNC(=O)C(N)c4cccnc4)cc3)c(F)c2)C(=O)O1 (stereo partly drawn) | 0.60 |
| CC(=O)NC[C@H]1CN(c2ccc(-c3ccc(CNCCC4CCCN4C)cc3)c(F)c2)C(=O)O1 (mixture of isomers) | 1.20 |
| CC(=O)NC[C@H]1CN(c2ccc(-c3ccc(CNCC4CCOC4)cc3)c(F)c2)C(=O)O1 (stereo partly drawn) | 0.90 |
| CC(=O)NC[C@H]1CN(c2ccc(-c3ccc(CNC(=O)[C@H](N)Cc4c[nH]c5ccccc45)cc3)c(F)c2)C(=O)O1 | 0.30 |
| CC(=O)NC[C@H]1CN(c2ccc(-c3ccc(C[S+]([O-])c4ncc[nH]4)cc3)c(F)c2)C(=O)O1 (stereo partly drawn) | 0.30 |
| CC(=O)NC[C@H]1CN(c2ccc(-c3ccc(CN4CCSCC4)cc3)c(F)c2)C(=O)O1 | 0.30 |
| CC(=O)NC[C@H]1CN(c2ccc(-c3ccc(CNCc4[nH]nnc4C)cc3)c(F)c2)C(=O)O1 | 0.30 |

---

Reported MIC by item:
- Tested on: S. aureus
- protocol.details: Minimum inhibitory concentrations (MICs) for S. aureus of exemplary compounds (Table 2)
- Format: cell-based
- assay.setup: Staphylococcus aureus, minimum inhibitory concentrations for S. aureus; read-out: MICs

| molecule | system.under.test | MIC / µg/mL |
| --- | --- | --- |
| CC(=O)NC[C@H]1CN(c2ccc(-c3ccc(Cn4ccnc4)cc3)c(F)c2)C(=O)O1 [Compound 1008] | S. aureus | 0.5 |
| CC(=O)NC[C@H]1CN(c2ccc(-c3ccc(CNCc4ccccn4)cc3)c(F)c2)C(=O)O1 [Compound 4024] | S. aureus | 1 |
| CC(=O)NC[C@H]1CN(c2ccc(-c3ccc(CN/C(=N\O)c4ccncc4)cc3)c(F)c2)C(=O)O1 [Compound 4285] | S. aureus | 8 |
| CC(=O)NC[C@H]1CN(c2ccc(-c3ccc(CNCCCc4cn(Cc5ccccc5)nn4)cc3)c(F)c2)C(=O)O1 [Compound 4256] | S. aureus | 4 |
| CC(=O)NC[C@H]1CN(c2ccc(-c3ccc(NC(=O)NCc4ccncc4)cc3)c(F)c2)C(=O)O1 [Compound 6004] | S. aureus | 1 |
| CC(=O)NC[C@H]1CN(c2ccc(-c3ccc(CNC(=O)C4CNC4)cc3)c(F)c2)C(=O)O1 [Compound 4291] | S. aureus | 8 |
| CC(=O)NC[C@H]1CN(c2ccc(-c3ccc(CNCC4CCN(C(=O)OC(C)(C)C)C4)cc3)c(F)c2)C(=O)O1 (stereo partly shown) [Compound 4317] | S. aureus | 16 |
